target: Human SGLT2 (hSGLT2) (Homo sapiens (Human), UniProt P31639); assay: Inhibitory effects on human SGLT2 activities (14C-AMG uptake, sodium-dependent glucose transport assay); conditions: hSGLT2-expressing CHO cells, 37° C. for 2 h, single determinations
Sequence (P31639 whole entry): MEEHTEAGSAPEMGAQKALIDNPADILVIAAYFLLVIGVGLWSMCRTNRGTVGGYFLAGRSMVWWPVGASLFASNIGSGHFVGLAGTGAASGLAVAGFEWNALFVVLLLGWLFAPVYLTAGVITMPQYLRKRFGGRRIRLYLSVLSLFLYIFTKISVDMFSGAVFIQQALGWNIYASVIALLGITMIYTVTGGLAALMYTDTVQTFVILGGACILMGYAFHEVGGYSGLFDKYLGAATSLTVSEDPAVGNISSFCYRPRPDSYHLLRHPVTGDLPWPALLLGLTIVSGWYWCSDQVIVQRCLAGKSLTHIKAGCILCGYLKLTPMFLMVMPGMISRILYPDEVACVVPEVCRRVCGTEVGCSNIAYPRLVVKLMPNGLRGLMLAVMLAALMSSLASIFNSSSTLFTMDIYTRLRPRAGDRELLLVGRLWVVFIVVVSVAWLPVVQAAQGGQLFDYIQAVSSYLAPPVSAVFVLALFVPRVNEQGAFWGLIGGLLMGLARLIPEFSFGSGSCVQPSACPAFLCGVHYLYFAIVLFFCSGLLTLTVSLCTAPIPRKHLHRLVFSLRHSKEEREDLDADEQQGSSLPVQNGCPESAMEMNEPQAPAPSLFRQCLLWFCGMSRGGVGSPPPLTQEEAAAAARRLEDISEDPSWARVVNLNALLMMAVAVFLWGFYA
Field: pIC50. Provide a value for each of the compounds that follow.
Formally, pIC50 is defined as -log10 of the concentration c, with c in mol/L.

pIC50 reported for this compound CSc1ccc(Cc2cc([C@@H]3O[C@H](CO)[C@@H](O)[C@H](O)[C@H]3O)c3c(c2Cl)OCCO3)cc1 : 9.07

// field: pIC50; key: CCOc1ccc(Cc2cc([C@@H]3O[C@H](CO)[C@@H](O)[C@H](O)[C@H]3O)c3c(c2C)OCO3)cc1 ; value = 8.80

Entry Cc1ccc(Cc2cc([C@@H]3O[C@H](CO)[C@@H](O)[C@H](O)[C@H]3O)c3c(c2Cl)CCO3)cc1 , pIC50 reported as 8.85

Sure, the documented pIC50 for COc1ccc(Cc2cc([C@@H]3O[C@H](CO)[C@@H](O)[C@H](O)[C@H]3O)c3c(c2C)CCC3)cc1 is 9.10

Summary for this compound, OC[C@H]1O[C@@H](c2cc(Cc3ccc(C4CC4)cc3)c(Cl)c3c2OCCO3)[C@H](O)[C@@H](O)[C@@H]1O : pIC50 is 9.19

Just so you know, measured pIC50 for CCc1ccc(Cc2cc([C@@H]3O[C@H](CO)[C@@H](O)[C@H](O)[C@H]3O)c3c(c2Cl)OCO3)cc1 came out at 9.40

# pIC50 of Cc1ccc(Cc2cc([C@@H]3O[C@H](CO)[C@@H](O)[C@H](O)[C@H]3O)c3c(c2Cl)OCCC3)cc1 = 8.72

---

target: UniProt:P31639; assay: Inhibitory effects on human SGLT2 activities (14C-AMG uptake, sodium-dependent glucose transport assay); conditions: hSGLT2-expressing CHO cells, 37° C. for 2 h, single determinations
observation_type: IC50 (nM)
Please respond with the number in nM and leave the unit unwritten.

The recorded IC50 for Cc1ccc(Cc2cc([C@@H]3O[C@H](CO)[C@@H](O)[C@H](O)[C@H]3O)c3c(c2C)OCO3)cc1 is 1.7

Memo: COc1ccc(Cc2cc([C@@H]3O[C@H](CO)[C@@H](O)[C@H](O)[C@H]3O)c3c(c2Cl)SCC3)cc1 , reported IC50: 0.9

# IC50 (compound: CCOc1ccc(Cc2cc([C@@H]3O[C@H](CO)[C@@H](O)[C@H](O)[C@H]3O)c3c(c2C)CCCC3)cc1 ) is 1.3

The compound listed as COc1ccc(Cc2cc([C@@H]3O[C@H](CO)[C@@H](O)[C@H](O)[C@H]3O)c3c(c2Cl)OCCC3)cc1 has a reported IC50 of 2.1

---

molecular target: Human SGLT1 (hSGLT1) (Homo sapiens (Human), UniProt P13866); test: Inhibitory effects on human SGLT1 activities (14C-AMG uptake, sodium-dependent glucose transport assay); conditions: 37° C. for 2 h, single determinations
Sequence (P13866 whole entry): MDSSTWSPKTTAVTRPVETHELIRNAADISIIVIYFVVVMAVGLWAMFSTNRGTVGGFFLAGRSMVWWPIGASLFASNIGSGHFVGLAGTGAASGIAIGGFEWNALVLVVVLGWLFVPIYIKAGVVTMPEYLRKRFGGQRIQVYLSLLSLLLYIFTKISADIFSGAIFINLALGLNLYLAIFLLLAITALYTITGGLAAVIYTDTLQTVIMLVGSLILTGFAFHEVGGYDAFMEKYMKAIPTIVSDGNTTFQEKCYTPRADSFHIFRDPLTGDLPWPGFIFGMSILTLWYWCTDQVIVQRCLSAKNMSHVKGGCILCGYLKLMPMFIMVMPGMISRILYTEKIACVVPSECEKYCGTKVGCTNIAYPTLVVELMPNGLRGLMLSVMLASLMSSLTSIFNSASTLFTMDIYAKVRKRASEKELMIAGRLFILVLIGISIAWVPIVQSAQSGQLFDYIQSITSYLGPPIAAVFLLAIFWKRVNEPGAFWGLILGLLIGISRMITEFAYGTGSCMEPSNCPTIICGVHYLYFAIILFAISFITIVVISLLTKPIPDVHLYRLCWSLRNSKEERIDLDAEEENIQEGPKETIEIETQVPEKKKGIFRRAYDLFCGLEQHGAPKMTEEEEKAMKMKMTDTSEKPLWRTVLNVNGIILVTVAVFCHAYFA
observation_type: IC50
Could you kindly put the unit after your number?

Summary for this molecule, COc1ccc(Cc2cc([C@@H]3O[C@H](CO)[C@@H](O)[C@H](O)[C@H]3O)c3c(c2Cl)OCO3)cc1 [Compound E025] : IC50 is 89.4 nM

Record OC[C@H]1O[C@@H](c2cc(Cc3ccc(-c4ccc(F)cc4)s3)c(Cl)c3c2OCCO3)[C@H](O)[C@@H](O)[C@@H]1O [Compound E054] , field IC50: 125 nM

For record CSc1ccc(Cc2cc([C@@H]3O[C@H](CO)[C@@H](O)[C@H](O)[C@H]3O)c3c(c2Cl)OCO3)cc1 [Compound E049] the listed IC50 is 50.3 nM

Sure, the documented IC50 for Cc1ccc(Cc2cc([C@@H]3O[C@H](CO)[C@@H](O)[C@H](O)[C@H]3O)c3c(c2C)OCO3)cc1 [Compound E061] is 27 nM

So for CCc1ccc(Cc2cc([C@@H]3O[C@H](CO)[C@@H](O)[C@H](O)[C@H]3O)c3c(c2Cl)CCCO3)cc1 [Compound E011] , the logged IC50 turned out to be 27 nM

// recorded IC50 for COc1ccc(Cc2cc([C@@H]3O[C@H](CO)[C@@H](O)[C@H](O)[C@H]3O)c3c(c2Cl)CCCO3)cc1 [Compound E010] : 16.9 nM

Data point: CCOc1ccc(Cc2cc([C@@H]3O[C@H](CO)[C@@H](O)[C@H](O)[C@H]3O)c3c(c2Cl)SCC3)cc1 [Compound E059] ; IC50 = 95.1 nM

molecule CCc1ccc(Cc2cc([C@@H]3O[C@H](CO)[C@@H](O)[C@H](O)[C@H]3O)c3c(c2Br)CCC3)cc1 [Compound E003] , IC50 observed: 45.4 nM

Just so you know, measured IC50 for OC[C@H]1O[C@@H](c2cc(Cc3ccc(C4CC4)cc3)c(Cl)c3c2OCO3)[C@H](O)[C@@H](O)[C@@H]1O [Compound E024] came out at 53 nM

Lab note: measured IC50 of COc1ccc(Cc2cc([C@@H]3O[C@H](CO)[C@@H](O)[C@H](O)[C@H]3O)c3c(c2Cl)CCS3)cc1 [Compound E030] was 171 nM

The measured IC50 associated with Cc1ccc(Cc2cc([C@@H]3O[C@H](CO)[C@@H](O)[C@H](O)[C@H]3O)c3c(c2Cl)OCO3)cc1 [Compound E040] reads 94.6 nM

response.value for COc1ccc(Cc2cc([C@@H]3O[C@H](CO)[C@@H](O)[C@H](O)[C@H]3O)c3c(c2C)CCC3)cc1 [Compound E005] (field: IC50) = 26.8 nM

# molecule COc1ccc(Cc2cc([C@@H]3O[C@H](CO)[C@@H](O)[C@H](O)[C@H]3O)c3c(c2Cl)SCC3)cc1 [Compound E034] ; its IC50 = 27.6 nM

IC50 reading for OC[C@H]1O[C@@H](c2cc(Cc3cc4ccccc4s3)c(Cl)c3c2CCO3)[C@H](O)[C@@H](O)[C@@H]1O [Compound E055] : 148 nM

Given item Cc1ccc(Cc2cc([C@@H]3O[C@H](CO)[C@@H](O)[C@H](O)[C@H]3O)c3c(c2Cl)OCCO3)cc1 [Compound E042] , the value recorded as its IC50 is 9.2 nM

Recorded result, CCOc1ccc(Cc2cc([C@@H]3O[C@H](SC)[C@@H](O)[C@H](O)[C@H]3O)c3c(c2Cl)CC(C)O3)cc1 (stereo partly drawn) [Compound E020] , IC50: 115 nM

The recorded IC50 for Cc1ccc(Cc2cc([C@@H]3O[C@H](CO)[C@@H](O)[C@H](O)[C@H]3O)c3c(c2Cl)OCCC3)cc1 [Compound E045] is 36.7 nM

Measured IC50 of COc1ccc(Cc2cc([C@@H]3O[C@H](SC)[C@@H](O)[C@H](O)[C@H]3O)c3c(c2Cl)CCC3)cc1 [Compound E048] : 33.7 nM

# IC50 (molecule: OC[C@H]1O[C@@H](c2cc(Cc3cc4ccccc4s3)c(Cl)c3c2OCCO3)[C@H](O)[C@@H](O)[C@@H]1O [Compound E056] ) is 14 nM

So, COc1ccc(Cc2cc([C@@H]3O[C@H](CO)[C@@H](O)[C@H](O)[C@H]3O)c3c(c2C)OCO3)cc1 [Compound E063] ? Its IC50 was 66.2 nM

So for CCOc1ccc(Cc2cc([C@@H]3O[C@H](CO)[C@@H](O)[C@H](O)[C@H]3O)c3c(c2Cl)CCO3)cc1 [Compound E013] , the logged IC50 turned out to be 105 nM

The value of IC50 measured for the molecule CCc1ccc(Cc2cc([C@@H]3O[C@H](CO)[C@@H](O)[C@H](O)[C@H]3O)c3c(c2Cl)CC(C)S3)cc1 (stereo partly drawn) [Compound E019] turned out to be 111 nM

Given item C=Cc1ccc(Cc2cc([C@@H]3O[C@H](CO)[C@@H](O)[C@H](O)[C@H]3O)c3c(c2Cl)OCC3)cc1 [Compound E028] , the value recorded as its IC50 is 163 nM

# IC50 of CCOc1ccc(Cc2cc([C@@H]3O[C@H](CO)[C@@H](O)[C@H](O)[C@H]3O)c3c(c2C)CCCC3)cc1 [Compound E047] = 27.1 nM

molecule CCc1ccc(Cc2cc([C@@H]3O[C@H](CO)[C@@H](O)[C@H](O)[C@H]3O)c3c(c2Cl)CCCC3)cc1 [Compound E043] , IC50 observed: 32.6 nM

Measured IC50, CCc1ccc(Cc2cc([C@@H]3O[C@H](CO)[C@@H](O)[C@H](O)[C@H]3O)c3c(c2C)CCCC3)cc1 [Compound E044] : 10.4 nM

Note to self: IC50 recorded for COc1ccc(Cc2cc([C@@H]3O[C@H](CO)[C@@H](O)[C@H](O)[C@H]3O)c3c(c2Cl)SCCC3)cc1 [Compound E036] was 10.7 nM

Values were extracted from patent US9340521B2.
